Reference source: paper PMC10447463

Assay type: physicochemical
Parameters: key: 1 = fibrils present; 0 non-fibrillar structures
Details: Fig S10 panel D; fibril category by TEM

substance | TEM 2cat
HHHHKIKIKIKIYYYY | 0
KAKAQANM | 0
KIKIQIMQWN | 1
HHHHKIKIQINMYYYY | 1
ILKNLSRSRKIKIQINMWQ | 1
HHHHKIKIKIKIWWWW | 0
CKIKIQIRGD | 1
CSISIQI | 1
KFKQFFINMWQ | 1
KFKFQFW | 1
KLKLQLL | 1
KIKIQINMWWWQ | 0
KIKIQIW | 1
CKIKIQINM | 1
CKIKIQI | 1
KIKIQIII | 1
CEFEFQFNMWQ | 1
KIKIKIKI | 0
CQFQFQF | 1
MKIKIQINMWQ | 1
CKFKFQFW | 1
KVKVQVVV | 1
CKAKAQA | 0
KIKIKIKIWWWW | 0
MKIKIQINM | 1
CSISIQINM | 1
KIKIKIQINMWQ | 1
EIEIQINM | 1
KVKVQVV | 0
KFKFKFQF | 1
KFKFEFEF | 1
CKIKIQINMWQ | 1
HHHHKAKAKAKAYYYY | 0
RGDSKIKIQIC | 1
CKIKQIINMWQ | 1
CKIKIQINMW | 1
KIKIQIMWNQ | 1
RGDCKIKIQINM | 1
KFKFQFF | 1
KFKFQFFF | 1
RGDKIKIQI | 1
EIEIQINMWQ | 0
RGDKIKIQINMWQ | 1
ILKNLSRSRKIKIQIC | 1
KLKLKLQL | 1
RGDCKFKFQF | 1
KIKIQIC | 1
IKVAVKIKIQINM | 1
HHHHKAKAKAKAWWWW | 0
KAKAKAQA | 0
KIKIQINMWQRGD | 0
CKIKQII | 1
KIKIKIKIWW | 0
RGDSGGGGGGKIKIQIC | 1
CEIEIQINMWQ | 1
RGDKIKIQIC | 1
CEIEIQINM | 1
KIKQII | 0
KIKIQINMWWQ | 0
KIKIQIRGD | 1
EIKIQINM | 1
KIKIKIQI | 1
RGDKIKIQINM | 1
KIKIQII | 1
KIEIQINM | 1
